Biological target: DNA topoisomerase 1 (Homo sapiens) (UniProt P11387)
Sequence (whole entry): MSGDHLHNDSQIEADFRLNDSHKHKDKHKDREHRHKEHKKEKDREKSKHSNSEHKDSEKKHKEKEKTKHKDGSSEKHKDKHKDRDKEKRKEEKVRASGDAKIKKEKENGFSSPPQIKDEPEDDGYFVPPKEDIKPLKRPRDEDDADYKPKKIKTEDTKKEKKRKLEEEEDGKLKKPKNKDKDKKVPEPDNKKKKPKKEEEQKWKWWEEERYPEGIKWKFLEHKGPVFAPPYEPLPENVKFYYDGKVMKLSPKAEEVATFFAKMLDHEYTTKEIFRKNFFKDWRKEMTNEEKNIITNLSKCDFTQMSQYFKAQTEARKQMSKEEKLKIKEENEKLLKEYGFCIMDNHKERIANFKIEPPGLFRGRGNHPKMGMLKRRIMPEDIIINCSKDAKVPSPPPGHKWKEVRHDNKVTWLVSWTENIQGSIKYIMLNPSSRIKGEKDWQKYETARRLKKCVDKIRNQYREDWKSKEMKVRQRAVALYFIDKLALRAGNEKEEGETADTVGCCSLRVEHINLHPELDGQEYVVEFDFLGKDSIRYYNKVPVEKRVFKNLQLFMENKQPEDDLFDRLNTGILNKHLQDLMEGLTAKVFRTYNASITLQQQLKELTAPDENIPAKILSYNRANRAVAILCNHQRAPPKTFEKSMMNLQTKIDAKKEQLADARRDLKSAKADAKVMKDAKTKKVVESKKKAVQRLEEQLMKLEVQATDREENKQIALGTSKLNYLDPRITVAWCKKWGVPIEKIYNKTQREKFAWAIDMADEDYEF
Experiment: Inhibition of human recombinant Top1 expressed in baculovirus-infected insect Sf9 cells using 3'-[32P]-end-labeled 117 bp DNA as substrate assessed as inhibition of DNA cleavage after 20 mins by PAGE analysis relative to 1 uM camptothecin
Active and inactive are the calls of the source. The rule behind the calls is not given here.
quantity kind: inhibition

Here are 4 molecules together with their reported answers.
O=C1c2cc(O)ccc2-c2c1c1ccc([N+](=O)[O-])cc1c(=O)n2CCCBr; Active
O=C1c2cc(O)ccc2-c2c1c1ccc([N+](=O)[O-])cc1c(=O)n2CCCN1CCOCC1; Active
O=C1c2cccc(O)c2-c2c1c1ccc([N+](=O)[O-])cc1c(=O)n2CCCN1CCOCC1; 50%
NCCCn1c2c(c3ccc([N+](=O)[O-])cc3c1=O)C(=O)c1cccc(O)c1-2; 50%

Now take the following molecule into account.
// query Please look up its inhibition: COc1cc2c(cc1O)-c1c(c3ccc([N+](=O)[O-])cc3c(=O)n1CCCN1CCOCC1)C2=O
// result 50%
